B1: tRNA (parent)
chain: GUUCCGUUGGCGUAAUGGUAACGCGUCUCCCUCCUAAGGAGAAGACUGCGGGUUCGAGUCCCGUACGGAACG

Variants of: B1
experiment: yeast fitness relative to wild type (ratio to wild type); higher = fitter; tRNA-Arg(CCU), competitive growth, 37 C, YPD
Fewer inactive variants are shown than the library holds.
observable: yeast fitness

Example results:
Quick one: yeast fitness of GAUCCGUUGGCGUAAAGGUAACGCGUCUCCCUCCUAAGGAGAAGACUGCGGGUUGGAGUACCGUACGGAACG [U2A U16A C55G C60A] ?
≤ 0.5

Quick one: yeast fitness for GAUCAGUUGGCGUAAUGGUAACGCGUCUCCCUCCUAAGGAGAAGACUGCGGCUUCGAGUCCCGUACGGAACG [U2A C5A G52C] ?
≤ 0.5

Others:
Can you share its yeast fitness? I mean this variant: GUUCCGCUGGCGUAAUGGUAACGCGCCUCCCUCCUAAGGAGAAGACUGUGGGUUCGAGUCCCGUACGGAACG [U7C U26C C49U]
≤ 0.5

Look up yeast fitness: GUUUCGUUGGCGUAAUGGUAACGGGACGCCCUCCUAAGGAGAAGACUGCGGGUUCGAGUCCCGUACGCAACG [C4U C24G U26A U28G G68C]
≤ 0.5

Would you kindly share the measured yeast fitness for GUUCCGUUGGCGUAAUGGUAACCCGUCUCCCUCCUAAGGAGAAGACUGCGGGUUCAAGUCCCGUACGGAUCG [G23C G56A A70U] ?
≤ 0.5

Item under review: GUUCCGUUGGCGUAUUGGUAACGGGUCUCCCUCCUAAGGAGCAGACUGCGGGUUUGAGUCCCGUACGUAACG [A15U C24G A42C C55U G68U] . Reported yeast fitness?
≤ 0.5

Would you mind telling me what yeast fitness value was observed for GUUCGGUUGGCGUAAUGGUAACGCGUCUCCCUACUAAGGAGAAGACUGCGGGUUCGAGUCCCGAACGGAACG [C5G C33A U64A] ?
≤ 0.5

What yeast fitness value was documented for this variant, GUUCCGUUGGGGUAAUGGUAACGUGUCUCCCUCCUAAGGAGAAGACUGCGGGUUCGAGUCCUGUACGCAACG [C11G C24U C62U G68C] ?
≤ 0.5

Name the recorded yeast fitness for GUUCCGUUCGCGUAAUGGUAAGGCGUCUCCCUCCUAAGGAGAAGACUGCGGGUUCGAGUCCUGUAAGGAACG [G9C C22G C62U C66A] .
≤ 0.5

Would you mind telling me what yeast fitness value was observed for GUACCGUUGGCGUAAUGGUAACGCGUCUCCCUCUUAAGGAGAAGACUGCGGGUUCCAGUCCCGUACGGAACG [U3A C34U G56C] ?
≤ 0.5

# yeast fitness lookup, item GUUCCGUUCGCGUAAUGGUAACGCGUGUGCCUCCUCAGGAGAAGACUGCGGGUUCGAGUCACGUACGGAACG [G9C C27G C29G A36C C61A]
≤ 0.5
